- Test system: Fibroblast
- TEST SUMMARY: Multiplex assay against human fibroblast
- Format: toxicity, cell-based
- CONDITIONS: 48 h, 10 µM, compound concentration 10 uM, replicate 2
Non-standard residues stand in square brackets, D forms with d. Residues, ends and D or L forms follow the SMILES beside them.
One threshold, 40%, splits the recorded Population Healthy Nuclei (%) values: lower ones are YES, equal or higher ones are NO.

COMPOUND: N[C@](CC1c2ccccc2Oc2ccccc21)(C(=O)O)[C@H]1C[C@@H]1C(=O)O
TARGET UNDER TEST: Fibroblast
LABEL VALUE: NO
--
COMPOUND: Cc1sc2c(c1C)C(c1ccc(Cl)cc1)=N[C@H](CC(=O)OC(C)(C)C)c1nnc(C)n1-2
TARGET UNDER TEST: Fibroblast
LABEL VALUE: NO
--
COMPOUND: C=CCN1C[C@H](C(=O)N(CCCN(C)C)C(=O)NCC)C[C@@H]2c3cccc4[nH]cc(c34)C[C@H]21 [CABERGOLINE]
TARGET UNDER TEST: Fibroblast
LABEL VALUE: YES
--
COMPOUND: CC(C)C[C@@H]1NC(=O)[C@@H](C(C)C)NC(=O)[C@@H]2CCCN2C(=O)[C@@H](CC(=O)O)NC(=O)[C@@H](Cc2c[nH]c3ccccc23)NC1=O [BQ-123] (cyclo(L[dW][dD]P[dV]))
TARGET UNDER TEST: Fibroblast
LABEL VALUE: NO
--
COMPOUND: COCCn1c(C)c(C)s/c1=N\C(=O)C1C(C)(C)C1(C)C
TARGET UNDER TEST: Fibroblast
LABEL VALUE: YES
--
COMPOUND: Nc1nc(-c2ccco2)c2cnn(Cc3ccccc3F)c2n1
TARGET UNDER TEST: Fibroblast
LABEL VALUE: YES
--
COMPOUND: O=c1ccc2ccc(OCCCCN3CCN(c4cccc5sccc45)CC3)cc2[nH]1 [BREXPIPRAZOLE]
TARGET UNDER TEST: Fibroblast
LABEL VALUE: NO

* * *

- Tested on: Fibroblast
- TEST SUMMARY: Multiplex assay against human fibroblast
- Type: toxicity, cell-based
- CONDITIONS: 12 h, 1 µM, compound concentration 1 uM, replicate 2
Non-standard residues stand in square brackets, D forms with d. Residues, ends and D or L forms follow the SMILES beside them.
# Population Mitotic Cells (%) per entry

COMPOUND: O=c1ccc2ccc(OCCCCN3CCN(c4cccc5sccc45)CC3)cc2[nH]1
Population Mitotic Cells (%): 51
--
COMPOUND: COc1cc2nc(N3CCN(C(=O)c4ccco4)CC3)nc(N)c2cc1OC.Cl [PRAZOSIN HYDROCHLORIDE]
Population Mitotic Cells (%): 50
--
COMPOUND: CSc1nc(NC2CCCC2)c([N+](=O)[O-])c(NC2CCCC2)n1
Population Mitotic Cells (%): 60
--
COMPOUND: Nc1nc(CC(=O)Nc2ccc(CCNC[C@H](O)c3ccccc3)cc2)cs1
Population Mitotic Cells (%): 68
--
COMPOUND: COc1cc(OC2CCN(C(C)=O)CC2)ccc1C(=O)N1CCC(N2C(=O)OCc3ccccc32)CC1
Population Mitotic Cells (%): 59
--
COMPOUND: CCn1c(-c2nc3cc(C(=O)N4CCCC(N)C4)ccc3n2C)cc2ccccc21.Cl (stereo not drawn)
Population Mitotic Cells (%): 67
--
COMPOUND: CCC(=O)OCC(=O)[C@@]1(OC(=O)CC)[C@@H](C)C[C@H]2[C@@H]3CCC4=CC(=O)C=C[C@]4(C)[C@@]3(Cl)[C@@H](O)C[C@@]21C [BECLOMETHASONE DIPROPIONATE]
Population Mitotic Cells (%): 57
--
COMPOUND: Cc1c(Cc2ccc3ccccc3n2)c2cc(F)ccc2n1CC(=O)O
Population Mitotic Cells (%): 66
--
COMPOUND: O=C(NCCNCC(O)COc1ccc(O)cc1)N1CCOCC1.O=C(NCCNCC(O)COc1ccc(O)cc1)N1CCOCC1.O=C(O)/C=C/C(=O)O (stereo not drawn) [XAMOTEROL FUMARATE]
Population Mitotic Cells (%): 56
--
COMPOUND: CN1C[C@H](C(=O)N[C@]2(C)O[C@@]3(O)[C@@H]4CCCN4C(=O)[C@H](Cc4ccccc4)N3C2=O)C[C@@H]2c3cccc4[nH]cc(c34)C[C@H]21.CS(=O)(=O)O [DIHYDROERGOTAMINE MESYLATE]
Population Mitotic Cells (%): 52
--
COMPOUND: CCCCCCNC(=O)Nc1ccc(S(=O)(=O)Nc2ccc(CCNC[C@H](O)COc3ccc(O)cc3)cc2)cc1
Population Mitotic Cells (%): 53
--
COMPOUND: CCc1nn2c(C)cc(C)nc2c1Cc1ccc(-c2nnc(C3CCNCC3)o2)cc1
Population Mitotic Cells (%): 54
--
COMPOUND: CC(C)C[C@@H]1NC(=O)[C@@H](C(C)C)NC(=O)[C@@H]2CCCN2C(=O)[C@@H](CC(=O)O)NC(=O)[C@@H](Cc2c[nH]c3ccccc23)NC1=O [BQ-123] (cyclo(L[dW][dD]P[dV]))
Population Mitotic Cells (%): 78
--
COMPOUND: CN(C)C(=O)Cn1cc(-c2ccc(-c3nnc4ccccn34)cc2)cn1
Population Mitotic Cells (%): 44
--
COMPOUND: O=C(Nc1cc(-c2ccccc2)nn1-c1ccccc1F)c1ccc([N+](=O)[O-])cc1
Population Mitotic Cells (%): 67
--
COMPOUND: CN(C)C/C=C/C(=O)Nc1ccc(C(=O)N2CCCC(Nc3ncc(Cl)c(-c4c[nH]c5ccccc45)n3)C2)cc1 (stereo not drawn)
Population Mitotic Cells (%): 53
--
COMPOUND: Cc1nn(C)c2nc(NNC(=O)Nc3cc(Cl)nc(Cl)c3)cc(C(C)C)c12
Population Mitotic Cells (%): 62
--
COMPOUND: CN1CCN2c3ccccc3Cc3ccccc3C2C1.Cl (stereo not drawn) [MIANSERIN HYDROCHLORIDE]
Population Mitotic Cells (%): 61
--
COMPOUND: COc1cc(C(=O)N2CC[C@@H](O)[C@@H](N)C2)cc2nc(-c3cc4ccccc4n3CC3CC3)n(C)c12.Cl
Population Mitotic Cells (%): 51
--
COMPOUND: Nc1nc(-c2ccco2)c2cnn(Cc3ccccc3F)c2n1
Population Mitotic Cells (%): 54
--
COMPOUND: CC(C)(O)C(=O)N1CCN(c2ccc(C(F)(F)F)c(C3=C(c4c[nH]c5ccccc45)C(=O)NC3=O)c2)CC1
Population Mitotic Cells (%): 67
--
COMPOUND: COc1ccc2[nH]c(I)c(CCNC(C)=O)c2c1
Population Mitotic Cells (%): 68
--
COMPOUND: Cc1cc(NC(=O)NCCN2CCC(O)(Cc3ccccc3)CC2)c2ccccc2n1
Population Mitotic Cells (%): 59
